# credit: PubChem BioAssay (NCI)

Tested on: BT-549 breast
experiment-notes: NCI tumour cell line growth inhibition, 48 h
measure-name: log10 TGI (log10 of the value in µM)
Units before log transform: µM; reported quantity: TGI; transform: log10.

Reference set (5 entries):
>>> measurement("COc1cc2c(C)cc(O)cc2c2cc(O)c(C)cc12")
1.36
>>> measurement("O=C1OCC2=C1C(c1cccc(Br)c1)c1cc3c(cc1N2CCO)CCC3 (stereo not given)")
0.81
>>> measurement("COc1ccc(C(=O)/C=C/c2cc(-c3cc(OC)c(OC)c(OC)c3)n[nH]2)cc1OC")
0.46
>>> measurement("CCOC(=O)C(Cc1ccc(CCCC(=O)NCCC(=O)Nc2ccc3nc(C)sc3c2)cc1)C(=O)OCC")
1.86
>>> measurement("COc1ccc(-c2nc3ccc(-c4nc5ccc(N6CCN(c7ccccc7)CC6)cc5[nH]4)cc3[nH]2)cc1OC")
1.04

For each listed entry, give its log10 TGI.
1. Cc1nn(-c2ccccc2)c2c1C(c1ccc(Cl)cc1)NC(=S)N2 (stereo not given)
2. O=c1c(/C=C/c2c(O)ccc3ccccc23)nnc2sc(-c3cccc(Br)c3)nn12

A)
1. 1.78
2. 1.75

###

Provide the reported TGI of each item.
Test system: SK-MEL-5 melanoma
experiment-notes: NCI tumour cell line growth inhibition, 48 h

Example results:
>>> measurement("CCOC(=O)c1nnc2c(C(=O)OCC)c3ccccc3n2c1N")
"51.8 µM"
>>> measurement("O=c1cnn(C/C=C/CO)c(=O)[nH]1")
"> 100 µM"
>>> measurement("CN(C)C1(N(C)C)Oc2c(c(=O)n(C)c(=O)n2C)C(c2ccccc2)C1(F)F (configuration not stated)")
"> 100 µM"
>>> measurement("O=[N+]([O-])c1ccc2c(c1)C1=C(CO2)Cc2ccccc2O1")
"29.7 µM"
>>> measurement("CCOC(=O)C(=[N+]=[N-])[Si](C)(C)C")
"> 100 µM"
>>> measurement("COc1cc(-c2cc(-c3cc4c([nH]c5ccccc54)c(-c4cc(OC)c(OC)c(OC)c4)n3)cc(-c3ccccc3)n2)cc(OC)c1OC")
"7.61 µM"
>>> measurement("COC(=O)c1ccccc1/C=C1\\Cc2ccc(C)c(C)c2C1=O")
"> 100 µM"
>>> measurement("CCOc1ccc(NC(=O)C(=O)CC(=O)c2c(C)n([O-])c3ccccc3[n+]2=O)cc1")
"> 100 µM"

Batch request: TGI per item, same order as input.
1. CN(CC(=O)O)c1ncc2c(n1)CCCC2
2. Cc1cc(S(=O)(=O)Nc2n[nH]c(N)n2)c(SCC(=O)O)cc1Cl

A)
1: > 100 µM; 2: > 10 µM

Dear colleague, could you send me TGI for each of the items below? Thanks.
1. Cc1cc(N(CCC#N)CCC#N)ccc1N=Nc1ccc(C(=O)O)cc1
2. COc1ccc(-c2nn(-c3ccc(NC(=O)c4ccc(Cl)c(Cl)c4)cc3)cc2-c2ccncc2)cc1Cl

A)
1. > 100 µM
2. > 50 µM

###

Test system: A498 renal
experiment-notes: NCI tumour cell line growth inhibition, 48 h
Answer each item with its documented TGI.
Numbers only, in µM.

Some compounds with known TGI results, for comparison:
>>> measurement("Nc1nc(/C=C\\c2ccc([N+](=O)[O-])s2)nc(N2CCCC2)n1")
34.6
>>> measurement("CCOC(=O)c1nnc2c(C(=O)OCC)c3ccccc3n2c1N")
60.8
>>> measurement("Cn1cc(-c2csc(-c3c[nH]c4ccc(F)cc34)n2)c2cnccc21")
3.31
>>> measurement("Cc1nc2c(nc1C)-c1[nH]c3c(c1C(=O)C2=O)CCCC3=O")
21.5
>>> measurement("N#C/C1=C(\\N)CCSSSC1")
58

Batch of 3 compounds: report TGI for each.
1. O=C(/C=C/c1cccc2ccccc12)c1ccccc1Cl
2. CC(=O)Oc1c2c(c(O)c3ccccc13)C(n1cnc3c(ncn3C3OC(CO)C4OC(C)(C)OC43)c1=N)CCC2 (centres undefined)
3. C=C(C)[C@@H]1CC[C@]2(C(=O)NC3CCCCC3)CC[C@]3(C)[C@H](CC[C@@H]4[C@@]5(C)CCCNC(C)(C)[C@@H]5CC[C@]43C)[C@@H]12

A)
29.5
33.3
28.8

Q) Query TGI for O=C(Cn1c[n+](CC(=O)c2ccc(-c3ccccc3)cc2)c2ccccc21)Nc1cccc2cccnc12
A) 4.84
